- assayed-target: Claudin 18.1 (CLDN18.1), expressed on CHOS-CLDN18.1 cells (UniProt P56856)
- Sequence (P56856 whole entry): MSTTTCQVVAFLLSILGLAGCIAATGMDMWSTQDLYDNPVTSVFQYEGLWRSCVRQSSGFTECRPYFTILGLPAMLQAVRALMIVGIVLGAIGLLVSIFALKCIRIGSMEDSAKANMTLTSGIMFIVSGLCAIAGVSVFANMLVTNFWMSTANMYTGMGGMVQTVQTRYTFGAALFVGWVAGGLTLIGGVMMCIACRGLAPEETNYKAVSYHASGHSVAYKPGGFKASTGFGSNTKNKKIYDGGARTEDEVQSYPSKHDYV
- experiment-description: FACS, CHOS-CLDN18.1 cells, 10 µg/ml
Recorded measurements of MFI, one per entry
// return just the number, without any unit appended

{"binder": "QP201202 (antibody, human IgG1, V domains shown) VH: EVQLQQSGPELVKPGASVKMSCKASGYTFTNYFVHWVKQKPGQGLEWIGYINPYNDDTKYNEKFKGKATLTSDKSSSTAYMDLSSLTSEDSAVYYCLSLRFFAYWGQGTLVTVSA VL: DIVMTQSPSSLTVTAGEKVTMSCKSSQSLLNSGNQKNYLTWYQQKPGQAPKLLIYWASTRESGVPDRFIGSGSGTDFTLTISHVQAEDLAVYFCQNDYSYPLTFGAGTNLELK", "MFI": 1150}

Continue with the binder presented below.
Prompt: Need MFI of QP192193 (antibody, human IgG1, V domains shown) VH: QVQLQQSGAELVRPGSSVKISCKASGYAFSSYWMNWVKQRPGQGLEWIGQIYPGNGDTTYNGKFKGQATLTADKSSSTVYMQLSSLTSEDSAVYFCARFVKGNAMDYWGQGTSVTVSS VL: DIVMTQSPSSLTVTAGEKVTMSCKSSQSLLNSGNQKNYLTWYQQNPGQPPKMLIYWASTRESGVPDRFTGSGSGIDFSLTISSVQAEDLALYYCQNAYSYPFTFGSGTKLEIK , thanks.
Response: 1030
